# test: physchem
# Assay type: physicochemical
# assayConditions: 22 °C, organic solvent or mixture, thermodynamic from solid
measuredParameter: solubility thermodynamic

Report solubility thermodynamic for C[C@@H]1C/C=C/C=C/C=C/C=C/[C@H](O[C@@H]2O[C@H](C)[C@@H](O)[C@H](N)[C@@H]2O)C[C@@H]2O[C@](O)(C[C@@H](O)C[C@H]3O[C@@H]3/C=C/C(=O)O1)C[C@H](O)[C@H]2C(=O)O please. > 100 mg/mL
